Provenance of the data: PubChem BioAssay (NCATS)

# Tested on: CP286
# experiment: qHTS profiling for inhibitors of Plasmodium falciparum proliferation (AID 504749); also: nearly all actives have a fitted effect of over 60% in size
# condition set: P. falciparum in erythrocytes, SYBR Green DNA, 72 h; series mostly up to 28.7 µM
Records with an inconclusive call do not appear. Calls of active or inactive are those of the source. Calls follow the shape of the dose curve; as a rule, active = well fitted inhibition curve with a large enough effect; inconclusive = small, poorly fitted or top-dose-only effect; inactive = flat fitted curve, though single readings scatter.
Answer with one of the outcomes given here: active, inactive

Ask | What outcome does the record of this test show for `CCc1nc(N)nc(N)c1-c1ccc(Cl)cc1` ?
Reply | inactive

Ask | Please let me know the test result on file for Clc1ccc(C(Cn2ccnc2)OCc2ccsc2Cl)c(Cl)c1 (configuration not stated) .
Reply | active

Ask | Please let me know the test result on file for CC1=C(C)C(=O)C(C(CCCCCC(=O)O)c2ccccc2)=C(C)C1=O (configuration not stated) .
Reply | inactive

Ask | Call for entry `O=C(O)CCNC(=O)c1ccc(N=Nc2ccc(O)c(C(=O)O)c2)cc1` :
Reply | inactive

Ask | Which result was noted for this molecule in the test: `CC(C)(S)[C@@H](N)C(=O)O`
Reply | inactive

Ask | What did this assay record as the result for `C[C@]12CCC(=O)C=C1CC[C@@H]1[C@H]2[C@@H](O)C[C@@]2(C)[C@H]1CC[C@]2(O)C(=O)CO` ?
Reply | inactive

Ask | Which outcome was entered for the molecule `CCN(CC)CCOc1ccc(Cc2ccccc2)cc1` in this test?
Reply | inactive

Ask | What is the recorded call for this molecule in the test? `CNC[C@H](O)c1ccc(O)c(O)c1`
Reply | inactive

Ask | Tell me the recorded outcome of this test for COc1ccc(C2(C#N)CCC(C(=O)O)CC2)cc1OC1CCCC1 (configuration not stated) .
Reply | inactive

Ask | GET /call?item= `CC1(C)CCC(C)(C)c2cc(NC(=O)c3ccc(C(=O)O)cc3)ccc21` returns the recorded outcome of this test.
Reply | inactive

Ask | I'd appreciate the recorded outcome for `CC[C@]1(O)C[C@H]2CN(CCc3c([nH]c4ccccc34)[C@@](C(=O)OC)(c3cc4c(cc3OC)N(C=O)[C@H]3[C@@](O)(C(=O)OC)[C@H](OC(C)=O)[C@]5(CC)C=CCN6CC[C@]43[C@@H]65)C2)C1` from this test.
Reply | active

Ask | Which outcome was assigned to C[Se]CCC(N)C(=O)O (configuration not stated) in this test?
Reply | inactive

* * *

# experiment: qHTS of pediatric cancer cell lines to identify multiple opportunities for drug repurposing: Primary screen for Saos-2 cells (AID 1347097); also: nearly all actives have a fitted effect of over 40% in size; also: potency is read from the fitted curve at half-maximal effect
# condition set: Saos-2 viability, CellTiter-Glo ATP luminescence, 48 h; series mostly up to 46 µM
Results filed as inconclusive are left out. Active and inactive are the calls of the source. Calls follow the shape of the dose curve; as a rule, active = well fitted cell-killing curve with a large enough effect; inconclusive = small, poorly fitted or top-dose-only effect; inactive = no such curve, though single readings can be large or run the other way. Non-standard residues stand in square brackets, D forms with d. Residues, ends and D or L forms follow the SMILES beside them. *: point of attachment. Sta = CC(C)C[C@H](N)[C@@H](O)CC(=O)O; Isovaleryl = CC(C)CC(=O)*
reported endpoint: Potency

Record excerpt, results attached:
CC(C)C[C@H](NC(=O)[C@H](Cc1ccccc1)NC(=O)c1cnccn1)B(O)O : 0.469 µM (active)
CC(S)C(=O)NCC(=O)O (stereo not drawn) : inactive
N=C(N)c1ccc2cc(OC(=O)c3ccc(N=C(N)N)cc3)ccc2c1 : inactive
CC(C)CC(=O)N[C@H](C(=O)N[C@H](C(=O)N[C@@H](CC(C)C)[C@@H](O)CC(=O)N[C@@H](C)C(=O)N[C@@H](CC(C)C)[C@@H](O)CC(=O)O)C(C)C)C(C)C (Isovaleryl-VV[Sta]A[Sta]-OH) : inactive
Cc1cc2c(s1)Nc1ccccc1N=C2N1CCN(C)CC1 : inactive

Ask | Query: Potency; subject: `CC(C)Oc1ccc2c(=O)c(-c3ccccc3)coc2c1`
Reply | inactive

Ask | State the recorded Potency for this entry: CCN(CCO)CCCC(C)Nc1ccnc2cc(Cl)ccc12 (stereo not drawn)
Reply | inactive

Ask | Form field: reported Potency of `Nc1cc(C(Cl)=C(Cl)Cl)c(S(N)(=O)=O)cc1S(N)(=O)=O`
Reply | inactive

Ask | What value of Potency has been reported for the following molecule? `CCCCCCCCOc1ccccc1C(=O)Nc1ccc(C(=O)OCC[N+](C)(CC)CC)cc1`
Reply | 29.6 µM (active)

Ask | Query (molecule): O=C(OC1C[C@H]2CC[C@@H](C1)[N+]21CCCC1)C(O)(c1ccccc1)c1ccccc1 (stereo partly drawn) ; field requested: Potency
Reply | inactive

Ask | Value lookup for Potency; key = `Nc1nc(Cl)nc2c1ncn2[C@H]1C[C@H](O)[C@@H](CO)O1`
Reply | inactive

Ask | Recorded Potency of `Clc1ccc2c(N3CCN(CCCN4CCN(c5ccnc6cc(Cl)ccc56)CC4)CC3)ccnc2c1` , please.
Reply | inactive

Ask | Which value of Potency has been reported for COc1cc2nc(N3CCN(C(=O)C4CCCO4)CC3)nc(N)c2cc1OC (stereo not drawn) in the records?
Reply | inactive
